target: UniProt:Q15382; test: Rheb-dependent in vitro kinase assay (Rheb-IVK; LanthaScreen or Western readout); format: biochemical; details: Rheb-dependent in vitro kinase assay; read-out: IVK IC50
Measured IC50 by item

# annotated cases, reported IC50 shown
{"smiles_str": "CCn1c(CO)nc2cc(OCc3ccc(Cl)cc3)c(Cl)cc21", "result": "> 100 µM"}
{"smiles_str": "COc1ccc(Cn2cnc3c(Br)cc(Oc4ccccc4)cc32)cc1", "result": "> 100 µM"}
{"smiles_str": "OCc1cc2c(Sc3ccc(F)c(F)c3)cc(Cl)cc2[nH]1", "result": "10 to 100 µM"}

So what's the measured IC50 for this one? Clc1cc2nc(-c3ccnc4[nH]ccc34)[nH]c2cc1Cl 10 to 100 µM

Quick one: IC50 of OCc1cc2c(Br)cc(OCc3ccccc3)cc2n1Cc1ccccc1 ? > 100 µM

Requested read-out: IC50. Entry: O=C(NCCn1ccc2ccccc21)c1cc2c(Sc3ccc(Cl)cc3)cc(Cl)cc2[nH]1 > 100 µM

Look at this compound and give its reported IC50. OCc1nc2c(OCc3ccnc(Cl)n3)c(Cl)c(Cl)cc2[nH]1 > 100 µM

Please give the measured IC50 for this compound: OCc1cc2c(C3CCNCC3)cc(Oc3ccccc3)cc2[nH]1 > 100 µM

###

target: HA-GST-Rheb (GTP-γ-S loaded) activating mTORC1 (Homo sapiens (Human), UniProt Q15382); assay: Rheb-dependent in vitro kinase assay (Rheb-IVK; LanthaScreen or Western readout); format: biochemical; settings: Rheb-dependent in vitro kinase assay; read-out: IVK IC50
Sequence (Q15382 1-181): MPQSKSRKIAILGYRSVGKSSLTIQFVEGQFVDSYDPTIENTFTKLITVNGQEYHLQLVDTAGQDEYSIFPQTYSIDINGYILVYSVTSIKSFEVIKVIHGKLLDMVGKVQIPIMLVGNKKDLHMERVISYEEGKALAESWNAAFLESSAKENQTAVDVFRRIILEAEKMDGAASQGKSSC
pIC50: −log10 of the molar value.
value_type: pIC50

For orientation, consider the following solved cases.
{"molecule": "OCc1nc2c(Oc3ccccc3)cccc2[nH]1 [I-470]", "target_of_assay": "HA-GST-Rheb (GTP-γ-S loaded) activating mTORC1 (Homo sapiens (Human), UniProt Q15382)", "result": "< 4.00"}
{"molecule": "OCc1cc2c(Sc3ccc(F)cc3)cc(Cl)cc2[nH]1 [I-153]", "target_of_assay": "HA-GST-Rheb (GTP-γ-S loaded) activating mTORC1 (Homo sapiens (Human), UniProt Q15382)", "result": "4.00 to 5.00"}
{"molecule": "OCc1nc2cc(OCc3ccccc3)c(Cl)cc2n1CC(F)(F)F [I-457]", "target_of_assay": "HA-GST-Rheb (GTP-γ-S loaded) activating mTORC1 (Homo sapiens (Human), UniProt Q15382)", "result": "< 4.00"}
{"molecule": "Clc1cc(Oc2ccccc2Cl)c2cc[nH]c2c1 [I-202, 6-chloro-4-(2-chlorophenoxy)-1H-indole]", "target_of_assay": "HA-GST-Rheb (GTP-γ-S loaded) activating mTORC1 (Homo sapiens (Human), UniProt Q15382)", "result": "4.00 to 5.00"}

Consider the molecule N[C@@H]1CCCC[C@@H]1COc1c(Cl)c(Cl)cc2[nH]c(CO)nc12 (racemic) [I-376] and give its measured pIC50. 3.52 to 4.00

Which pIC50 value is on record for OCc1nc2cc(OCc3ccccc3Cl)c(Cl)cc2[nH]1 [I-485] ? 3.10 to 3.52

###

Overview of reported pIC50 across a group of compounds:
target: UniProtKB Q15382; assay: Rheb-dependent in vitro kinase assay (Rheb-IVK; LanthaScreen or Western readout); assay type: biochemical; settings: Rheb-dependent in vitro kinase assay; read-out: IVK IC50
pIC50: −log10 of the molar value.

Worked examples, 6 compounds total:
{"compound": "Clc1ccc2[nH]ccc2c1Oc1ccccc1 [I-257, 5-chloro-4-phenoxy-1H-indole]", "pIC50": "4.00 to 5.00"}
{"compound": "NC(=O)CCc1cc2c(Oc3ccccc3)c(Cl)ccc2[nH]1 [I-247]", "pIC50": "4.00 to 5.00"}
{"compound": "OCc1nc2c(OCC3CCCC3O)c(Cl)c(Cl)cc2[nH]1 (centres unmarked) [I-379]", "pIC50": "< 4.00"}
{"compound": "N#Cc1cccc(COc2c(Cl)c(Cl)cc3[nH]c(CO)nc23)c1 [I-459]", "pIC50": "< 4.00"}
{"compound": "OCc1ccc(Sc2cccc3[nH]ccc23)cc1 [I-183]", "pIC50": "< 4.00"}
{"compound": "O=C(O)c1cc2c(Br)cc(Oc3ccccc3)cc2n1Cc1ccc(C(=O)N2CCNCC2)cc1 [I-61]", "pIC50": "< 4.00"}

I'd like to know its pIC50. The compound in question is Fc1cccc(Oc2cccc3[nH]ccc23)c1 [I-282, 4-(3-fluorophenoxy)-1H-indole] 3.52 to 4.00
